Cited source for all entries: patent US20130210709A1

target_of_assay: CXCR4 receptor (human, UniProt P61073 1-352)
Sequence (P61073 whole entry): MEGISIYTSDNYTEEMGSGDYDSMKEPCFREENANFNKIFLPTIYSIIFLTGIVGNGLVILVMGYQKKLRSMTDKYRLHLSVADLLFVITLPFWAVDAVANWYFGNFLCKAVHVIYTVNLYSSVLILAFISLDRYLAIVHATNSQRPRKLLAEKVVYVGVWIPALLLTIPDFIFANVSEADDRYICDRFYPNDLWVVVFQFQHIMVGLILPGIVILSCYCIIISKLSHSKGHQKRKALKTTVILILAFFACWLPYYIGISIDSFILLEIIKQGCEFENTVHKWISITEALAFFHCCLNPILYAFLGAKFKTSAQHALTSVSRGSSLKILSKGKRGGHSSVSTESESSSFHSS
experiment_summary: cell-based or functional assay
* marks the point of attachment. Palmitoyl = CCCCCCCCCCCCCCCC(=O)*
# AUC (% of vehicle), chemotaxis, SUPB-15, 1.0 uM listing for each entry below

binder	result
Palmitoyl-HATNSQRPRKLLAEKV-NH2 (SMILES CCCCCCCCCCCCCCCC(=O)N[C@@H](Cc1c[nH]cn1)C(=O)N[C@@H](C)C(=O)N[C@H](C(=O)N[C@@H](CC(N)=O)C(=O)N[C@@H](CO)C(=O)N[C@@H](CCC(N)=O)C(=O)N[C@@H](CCCNC(=N)N)C(=O)N1CCC[C@H]1C(=O)N[C@@H](CCCNC(=N)N)C(=O)N[C@@H](CCCCN)C(=O)N[C@@H](CC(C)C)C(=O)N[C@@H](CC(C)C)C(=O)N[C@@H](C)C(=O)N[C@@H](CCC(=O)O)C(=O)N[C@@H](CCCCN)C(=O)N[C@H](C(N)=O)C(C)C)[C@@H](C)O) [CXCR4 i2 loop compound 83]	126 % of vehicle

Exercise: Can you share its AUC (% of vehicle), chemotaxis, SUPB-15, 1.0 uM? I mean this binder: Palmitoyl-HATNSQRPRKLLAE-NH2 (SMILES CCCCCCCCCCCCCCCC(=O)N[C@@H](Cc1c[nH]cn1)C(=O)N[C@@H](C)C(=O)N[C@H](C(=O)N[C@@H](CC(N)=O)C(=O)N[C@@H](CO)C(=O)N[C@@H](CCC(N)=O)C(=O)N[C@@H](CCCNC(=N)N)C(=O)N1CCC[C@H]1C(=O)N[C@@H](CCCNC(=N)N)C(=O)N[C@@H](CCCCN)C(=O)N[C@@H](CC(C)C)C(=O)N[C@@H](CC(C)C)C(=O)N[C@@H](C)C(=O)N[C@@H](CCC(=O)O)C(N)=O)[C@@H](C)O) [CXCR4 i2 loop compound 81]
Solution: 79.8 % of vehicle
